Test system: Staphylococcus sp.
Experiment: in vitro antibacterial evaluation, MIC by broth dilution
Type: cell-based
Experimental Setup: broth dilution, 18 hours at 35° C.
Property Measured: MIC Staphylococcus aureus (GC 3053) (µg/mL)
The answer is to be given in µg/mL; state only the numeric part.

Form field: reported MIC Staphylococcus aureus (GC 3053) of CCCCOC(=O)CCC1OCC2OC(OC3C(CO)OC(Oc4ccc(CC5NC(=O)C(C(C)c6ccccc6)NC(=O)CNC(=O)C(CO)NC(=O)C(C(O)C6CNC(=N)N6C6OC(CO)C(O)C(O)C6O)NC(=O)C(C(O)C6CNC(=N)N6)NC5=O)cc4)C(O)C3O)C(O)C(O)C2O1 (stereo not shown)
2

====

Test system: Streptococcus sp.
Experiment: in vitro antibacterial evaluation, MIC by broth dilution
Type: cell-based
Experimental Setup: broth dilution, 18 hours at 35° C.; strain GC 4563
Excerpt: Methods for in vitro Antibacterial Evaluation (Table 1) […]
Numbered stars: 1 amine (or outer) side, 2 acyl side, 3 side chain; on linkers, the order of the positions; unused ones are H or OH. Square brackets hold non-standard residues; d marks the D form. Peptide text beside a SMILES is read from it. * marks the point of attachment. ξ: configuration not given here. X1 = N=C1NCC(C(O)C(N[*:1])C(=O)[*:2])N1C1OC(CO)C(O)C(O)C1O; ξEnduracididine(βξ-OH,4'ξ) = N=C1NCC(C(O)C(N)C(=O)O)N1; X2 = OCC1OC(OC2C(CO)OC(*)C(O)C2O)C(O)C(O)C1O
Property Measured: MIC Streptococcus pyogenes (GC 4563)

Form field: reported MIC Streptococcus pyogenes (GC 4563) of COc1cccc(C2OCC3OC(OC4C(CO)OC(Oc5ccc(CC6NC(=O)C(C(C)c7ccccc7)NC(=O)CNC(=O)C(CO)NC(=O)C(C(O)C7CNC(=N)N7C7OC(CO)C(O)C(O)C7O)NC(=O)C(C(O)C7CNC(=N)N7)NC6=O)cc5)C(O)C4O)C(O)C(O)C3O2)c1 (stereo not drawn)
0.25 µg/mL

N=C1NCC(C(O)C2NC(=O)C(Cc3ccc(OC4OC(CO)C(OC5OC(CO)C(O)C(O)C5O)C(O)C4O)cc3)NC(=O)C(Cc3ccccc3)NC(=O)CNC(=O)C(CO)NC(=O)C(C(O)C3CNC(=N)N3C3OC(CO)C(O)C(O)C3O)NC2=O)N1 (stereo not drawn) [Example 282] (cyclo(GFY(X2)[ξEnduracididine(βξ-OH,4'ξ)][X1]S); configuration not given here) ?
>128 µg/mL

CC(c1ccccc1)C1NC(=O)CNC(=O)C(CO)NC(=O)C(C(O)C2CN(Cc3ccc(C(C)(C)C)cc3)C(=N)N2C2OC(CO)C(O)C(O)C2O)NC(=O)C(C(O)C2CNC(=N)N2)NC(=O)C(Cc2ccc(OC3OC(CO)C(OC4OC5COC6(OC5C(O)C4O)C4CC5CC(C4)CC6C5)C(O)C3O)cc2)NC1=O (stereo not drawn) ?
1 µg/mL

====

Tested on: Staphylococcus sp.
Experiment: in vitro antibacterial evaluation, MIC by broth dilution
Format: cell-based
Experimental Setup: broth dilution, 18 hours at 35° C.
Property Measured: MIC Coagulase Negative Staphylococcus (ID-3941) (µg/mL)
The answer is to be given in µg/mL; state only the numeric part.

Form field: reported MIC Coagulase Negative Staphylococcus (ID-3941) of CCCCCNC(=O)OC1C(CO)OC(OC2C(CO)OC(Oc3ccc(CC4NC(=O)C(C(C)c5ccccc5)NC(=O)CNC(=O)C(CO)NC(=O)C(C(O)C5CNC(=N)N5C5OC(CO)C(O)C(O)C5O)NC(=O)C(C(O)C5CNC(=N)N5)NC4=O)cc3)C(O)C2O)C(O)C1O (stereo not shown)
64

CC(c1ccccc1)C1NC(=O)CNC(=O)C(CO)NC(=O)C(C(O)C2CNC(=N)N2C2OC(CO)C(O)C(O)C2O)NC(=O)C(C(O)C2CNC(=N)N2)NC(=O)C(Cc2ccc(OC3OC(CO)C(OC4OC5COC(CC(C)(C)C)OC5C(O)C4O)C(O)C3O)cc2)NC1=O (stereo not shown) ?
1

CCCC(CCC)C(=O)OCC1OC(OC2C(CO)OC(Oc3ccc(CC4NC(=O)C(C(C)c5ccccc5)NC(=O)CNC(=O)C(CO)NC(=O)C(C(O)C5CNC(=N)N5C5OC(CO)C(O)C(O)C5O)NC(=O)C(C(O)C5CNC(=N)N5)NC4=O)cc3)C(O)C2O)C(O)C(O)C1O (stereo not shown) [Example 99c] ?
1

CCCC(C)C1OCC2OC(OC3C(CO)OC(Oc4ccc(CC5NC(=O)C(C(C)c6ccccc6)NC(=O)CNC(=O)C(CO)NC(=O)C(C(O)C6CNC(=N)N6C6OC(CO)C(O)C(O)C6O)NC(=O)C(C(O)C6CNC(=N)N6)NC5=O)cc4)C(O)C3O)C(O)C(O)C2O1 (stereo not shown) ?
1

====

Field: MIC Coagulase Negative Staphylococcus (GC 4548). Provide a value for each of the compounds that follow.
System: Staphylococcus sp.
Experiment: in vitro antibacterial evaluation, MIC by broth dilution
Assay type: cell-based
Experimental Setup: broth dilution, 18 hours at 35° C.; strain GC 4548
The answer is to be given in µg/mL; state only the numeric part.

Form field: reported MIC Coagulase Negative Staphylococcus (GC 4548) of COc1cccc(C2OC3C(OC4C(CO)OC(Oc5ccc(CC6NC(=O)C(C(C)c7ccccc7)NC(=O)CNC(=O)C(CO)NC(=O)C(C(O)C7CNC(=N)N7C7OC(CO)C(O)C(O)C7O)NC(=O)C(C(O)C7CNC(=N)N7)NC6=O)cc5)C(O)C4O)OC(CO)C(O)C3O2)c1 (single isomer, unassigned) [Example 137a]
8

CC(c1ccccc1)C1NC(=O)CNC(=O)C(CO)NC(=O)C(C(O)C2CNC(=N)N2C2OC(CO)C(O)C(O)C2O)NC(=O)C(C(O)C2CNC(=N)N2)NC(=O)C(Cc2ccc(OC3OC(CO)C(OC4OC(CO)C(O)C5OC(c6ccccc6)OC45)C(O)C3O)cc2)NC1=O (single isomer, unassigned) [Example 104b] ?
4

CC(c1ccccc1)C1NC(=O)CNC(=O)C(CO)NC(=O)C(C(O)C2CNC(=N)N2C2OC(CO)C(O)C(O)C2O)NC(=O)C(C(O)C2CNC(=N)N2)NC(=O)C(Cc2ccc(OC3OC(CO)C(OC4OC5COC(c6ccc(S(C)(=O)=O)cc6)OC5C(O)C4O)C(O)C3O)cc2)NC1=O (stereo not shown) [Example 157] ?
8

COC1CCC2(C)C(CCC3C2CCC2(C)C(C(C)CCC4OCC5OC(OC6C(CO)OC(Oc7ccc(CC8NC(=O)C(C(C)c9ccccc9)NC(=O)CNC(=O)C(CO)NC(=O)C(C(O)C9CNC(=N)N9C9OC(CO)C(O)C(O)C9O)NC(=O)C(C(O)C9CNC(=N)N9)NC8=O)cc7)C(O)C6O)C(O)C(O)C5O4)CCC32)C1 (stereo not shown) [Example 130] ?
32

CC(c1ccccc1)C1NC(=O)CNC(=O)C(CO)NC(=O)C(C(O)C2CNC(=N)N2C2OC(CO)C(O)C(O)C2O)NC(=O)C(C(O)C2CNC(=N)N2)NC(=O)C(Cc2ccc(OC3OC(CO)C(OC4OC5COC(c6ccc(-c7cccs7)cc6)OC5C(O)C4O)C(O)C3O)cc2)NC1=O (stereo not shown) [Example 163] ?
1

CC(C)=CCCC(C)CC1OCC2OC(OC3C(CO)OC(Oc4ccc(CC5NC(=O)C(C(C)c6ccccc6)NC(=O)CNC(=O)C(CO)NC(=O)C(C(O)C6CNC(=N)N6C6OC(CO)C(O)C(O)C6O)NC(=O)C(C(O)C6CNC(=N)N6)NC5=O)cc4)C(O)C3O)C(O)C(O)C2O1 (stereo not shown) [Example 126] ?
8

COc1ccc2cc(COCC3OC(OC4C(CO)OC(Oc5ccc(CC6NC(=O)C(C(C)c7ccccc7)NC(=O)CNC(=O)C(CO)NC(=O)C(C(O)C7CNC(=N)N7C7OC(CO)C(O)C(O)C7O)NC(=O)C(C(O)C7CNC(=N)N7)NC6=O)cc5)C(O)C4O)C(O)C(O)C3O)ccc2c1 (stereo not shown) [Example 230] ?
0.5

CC(c1ccccc1)C1NC(=O)CNC(=O)C(CO)NC(=O)C(C(O)C2CNC(=N)N2C2OC(CO)C(O)C(O)C2O)NC(=O)C(C(O)C2CNC(=N)N2)NC(=O)C(Cc2ccc(OC3OC(CO)C(OC4OC(CO)C(O)C5OC(c6ccc(-c7ccsc7)cc6)OC45)C(O)C3O)cc2)NC1=O (stereo not shown) [Example 164a] ?
4

CC(c1ccccc1)C1NC(=O)CNC(=O)C(CO[Si](C)(C)C(C)(C)C)NC(=O)C(C(O)C2CNC(=N)N2C2OC3COC(C)(C)OC3C3OC(C)(C)OC32)NC(=O)C(C(O)C2CNC(=N)N2)NC(=O)C(Cc2ccc(O)cc2)NC1=O (stereo not shown) [Example 248] ?
32

Cc1ccc(CC2OCC3OC(OC4C(CO)OC(Oc5ccc(CC6NC(=O)C(C(C)c7ccccc7)NC(=O)CNC(=O)C(CO)NC(=O)C(C(O)C7CNC(=N)N7C7OC(CO)C(O)C(O)C7O)NC(=O)C(C(O)C7CNC(=N)N7)NC6=O)cc5)C(O)C4O)C(O)C(O)C3O2)cc1 (stereo not shown) [Example 119] ?
1

CC(c1ccccc1)C1NC(=O)CNC(=O)C(CO)NC(=O)C(C(O)C2CNC(=N)N2C2OC(CO)C(O)C(O)C2O)NC(=O)C(C(O)C2CNC(=N)N2)NC(=O)C(Cc2ccc(OC3OC(CO)C(OC4OC5COC(c6ccc(C=Cc7ccccc7)cc6)OC5C(O)C4O)C(O)C3O)cc2)NC1=O (stereo not shown) [Example 172] ?
2
